Molecular target: MurC (UniProt C4ZRI6)
Sequence (C4ZRI6 whole entry, looked up): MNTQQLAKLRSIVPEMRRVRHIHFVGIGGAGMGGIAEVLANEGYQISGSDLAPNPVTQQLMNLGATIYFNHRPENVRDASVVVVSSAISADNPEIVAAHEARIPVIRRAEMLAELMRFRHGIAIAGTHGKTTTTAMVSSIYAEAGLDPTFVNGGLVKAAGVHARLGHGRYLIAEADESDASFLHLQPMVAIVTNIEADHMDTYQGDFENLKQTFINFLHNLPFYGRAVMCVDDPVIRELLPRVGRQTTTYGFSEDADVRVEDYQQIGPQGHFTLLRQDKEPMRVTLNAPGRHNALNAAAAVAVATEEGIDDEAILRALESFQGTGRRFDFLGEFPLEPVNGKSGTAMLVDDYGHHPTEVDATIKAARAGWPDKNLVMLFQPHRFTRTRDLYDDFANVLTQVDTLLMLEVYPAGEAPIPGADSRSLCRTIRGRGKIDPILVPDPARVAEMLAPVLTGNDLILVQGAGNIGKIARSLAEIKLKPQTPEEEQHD
Assay: relative enzymatic activity vs untreated control (fraction); higher = less inhibition
Conditions: 100 µM; incubation time: 2 h at 37 C
Lab note: compare relative enzymatic activity against 1. Equal or greater, write fulfilled. Smaller, write not fulfilled.

Answer whether relative enzymatic activity of COC1(NC(=O)Cc2cccs2)C(=O)N2C(C(=O)[O-])=C(COC(N)=O)CSC21.[Na+] (stereo unspecified) is greater than or equal to 1.
fulfilled

Please check the record "Oc1c(Cl)cc(Cl)c(Cl)c1Cc1c(O)c(Cl)cc(Cl)c1Cl" and state if its relative enzymatic activity is at or above 1.
fulfilled

Confirm if relative enzymatic activity reported for the compound "Cc1cn([C@H]2C[C@H](N=[N+]=[N-])[C@@H](CO)O2)c(=O)[nH]c1=O" is 1 or above.
fulfilled

Threshold query (relative enzymatic activity >= 1) on CC(N)O.Cc1cc(CC(C)CC(C)(C)C)n(O)c(=O)c1 (stereo unspecified)
fulfilled

relative enzymatic activity >= 1 for "NC(=O)NN=Cc1ccc([N+](=O)[O-])o1" ?
fulfilled

Test whether the compound "CO/N=C(\C(=O)N[C@@H]1C(=O)N2C(C(=O)O)=C(CSc3nnnn3C)CS[C@H]12)c1csc(N)n1" records relative enzymatic activity of 1 or higher.
fulfilled

Has "CN(C)c1ccc(O)c2c1C[C@@H]1C[C@@H]3[C@@H](N(C)C)C(=O)C(C(N)=O)=C(O)[C@]3(O)C(=O)[C@H]1C2=O" a recorded relative enzymatic activity greater than or equal to 1?
fulfilled

State whether the measured relative enzymatic activity reaches 1, counting equality as reaching it, for "CN(C)c1cc(CNCC(C)(C)C)c(O)c2c1C[C@H]1C[C@H]3[C@H](N(C)C)C(=O)[C@H](C(N)=O)C(=O)[C@@]3(O)C(=O)[C@@H]1C2=O"
fulfilled

Identify whether the reported relative enzymatic activity of the following compound is 1 or greater: CON=C(C(=O)NC1C(=O)N2C(C(=O)[O-])=C(COC(C)=O)CSC12)c1csc(N)n1.[Na+] (stereo unspecified)
not fulfilled

Tell me whether relative enzymatic activity is at least 1 here: "CC1(C)S[C@@H]2[C@H](NC(=O)[C@H](NC(=O)N3CCNC3=O)c3ccccc3)C(=O)N2[C@H]1C(=O)O"
not fulfilled

Dear colleague, could you confirm whether "CN[C@H]1CN(c2ccc3c(=O)c(C(=O)O)cn(-c4nccs4)c3n2)C[C@@H]1OC" has relative enzymatic activity at or above 1?
fulfilled

Please tell me: is the compound "CC(=O)On1cc(F)c(=O)[nH]c1=O" at or over 1 in terms of relative enzymatic activity?
fulfilled

Confirm if relative enzymatic activity reported for the compound "CON=C(C(=O)N[C@@H]1C(=O)N2C(C(=O)OCOC(=O)C(C)(C)C)=C(C=Cc3scnc3C)CS[C@H]12)c1csc(N)n1" is 1 or above.
not fulfilled

Quick check, relative enzymatic activity >= 1? "CO[C@@H]1[C@@H](OC(=O)c2ccc(C)[nH]2)[C@@H](O)[C@@H](Oc2ccc3c(c2C)OC(=O)[C@H](NC(=O)c2[nH]cc(CC(=O)Nc4cc5ccc(O[C@@H]6OC(C)(C)[C@H](OC)[C@@H](OC(=O)c7ccc(C)[nH]7)[C@H]6O)c(C)c5oc4=O)c2C)C3)CC1(C)C"
fulfilled

For this compound, is measured relative enzymatic activity 1 or higher? "NC[C@H]1O[C@H](O[C@H]2[C@H](O)[C@@H](O[C@H]3O[C@H](CO)[C@@H](O)[C@H](N)[C@H]3O)[C@H](N)C[C@@H]2N)[C@H](N)C[C@@H]1O"
not fulfilled
